protocol summary: NCI Yeast Anticancer Drug Screen. Data for the bub3 strain (AID 167)
measurement context: S. cerevisiae bub3 mutant strain, at 50.0 µM, hits give high values
This is part of a sample that, as a whole, favours compounds with a hit. Of some 79,000 tested, about 15% had one in any assay.
property label: growth inhibition (%)
# number only, unit % dropped from output

Reported growth inhibition, compound O=c1sc2ccccc2n1CC1CS1 (stereo unspecified) : ____
-27.1

Record request: growth inhibition value, item `Cc1ccc(NN=O)nc1`
-10.6

Bench note: what growth inhibition did `O=C1CCC(=O)N1c1ccc([As](=O)(O)O)cc1` show?
0.6

Entry under review: `Cc1ccc(S(N)(=O)=O)cc1` . Reported growth inhibition?
12.8

Which growth inhibition value is on record for O=[As]c1ccc(C(=O)Cl)cc1 (stereo unspecified) ?
-25.3

Which measured growth inhibition value corresponds to `Cc1ccc(C(=O)CN)cc1` ?
3.45

Field request: growth inhibition | item: C/C(CCl)=N\NC1=NC2(CCCCC2)P(=O)(NNc2ncccn2)S1 (stereo unspecified)
6.3

Please report the recorded growth inhibition for `CC1(C)N=C(N)N=C(N)N1c1ccc(OCCOc2ccc(S(=O)(=O)F)cc2)cc1` .
-10.7

Which growth inhibition reading was recorded for the compound `CCC1(CCOc2ccccc2)C(=O)NC(=O)NC1=O` ?
1.6

Which growth inhibition value is on record for `O=[Se](=O)(O)O` ?
-12.6

What value of measured growth inhibition is listed for `O=C(NC(c1ccccc1)(c1ccccc1)c1ccccc1)N(CCCl)CCCl` ?
39.5

// query growth inhibition value for entry CC(=O)Oc1ccc(CCN(C)C2CC3CCC2(C)C3(C)C)cc1OC(C)=O (stereo unspecified)
6.1

Give its growth inhibition value. Item: `CC[N+](C)(C)c1ccc(C)c(OC(=O)NC)c1`
15.3

Which measured growth inhibition value corresponds to COc1ccc2c(c1)C13CCCCC1C(C2)[N+](C)([O-])CC3 (stereo unspecified) ?
-10.9

What value of measured growth inhibition is listed for O=P1(N(CCCl)CCCl)Oc2ccc(Cl)cc2Sc2c(ccc(Cl)c2Cl)O1 (stereo unspecified) ?
35.4

Look up growth inhibition for this compound: `N#CCC#N`
2.75

I'd like to know its growth inhibition. The compound in question is ClC1=C(Cl)C2(Cl)C3C4CC(C5OC45)C3C1(Cl)C2(Cl)Cl (stereo unspecified)
9.75

Record request: growth inhibition value, item C[N+]12CCC(c3ccccc3)(CC1)C(O)C2 (stereo unspecified)
2.8

I would be grateful if you could share the reported growth inhibition for `CCCCC(=O)[O-].N.N.N.N.N.[Co+3].[O-][Cl+3]([O-])([O-])[O-]` .
-0.3

Dear colleague, I am looking for the recorded growth inhibition of the following compound: COC1CC2C=CC3C4OC2(/C(C)=C/C(C)C(C(C)O)OC1=O)C3C(O)C(C)C4OC(=O)c1ccc[nH]1 (stereo unspecified)
-2.85

I'd like to know its growth inhibition. The compound in question is CNP1(N(C)C)=NP(NC)(N(C)C)=NP(NC)(N(C)C)=N1 (stereo unspecified)
6.6
